Tested on: K4 kissing-loop RNA reporter;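 note: bound reporter read as fluorescence of individual clusters on recovered sequencing chips by microscopy, with normalized cluster intensities fitted with a binding model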
Measurement notes: apparent KD of K4 kissing-loop reporter; higher = weaker reporter binding
Test parameters: Eterna round: R107; input ligand: none

| Residue sequence | Measurement target | apparent KD of K4 kissing-loop reporter, nM |
| --- | --- | --- |
| GCCGUAGAUGGAAGGAGCGAGUCCAAACCAUAUUGCUGAAAAUUCGAGUGAUGUUCGUAAGCUCAGGUAGGUCGCCAUCUACGGC | K4 kissing-loop RNA reporter | 209 |
| UGAUACCAGACGGCCGCCACUCCUGCAAGUCAAAGACUUGCUAAGGAAAUCGUCCAGUGAUGUUGGAGGACCGGGUCUGGUAUCU [TrypBX 17 #SwitchBubble #Palindromic #StaticStem] | K4 kissing-loop RNA reporter | 830 |
| CCCGUGGGUUCGAGAGGGCUUGUGGGAAGUAAGGAUAUUUAGGGAGAAAGAAGGUACUAUAGAAUAUAGUGAUGUUAUAUAUGGG [#07 K4 FMN A Same State] | K4 kissing-loop RNA reporter | 454 |
| AAUUUAUAUUUGUUCUUCAAAUGUUCAGAAGGAGCGUGAAUUAUCACAGGUAGGUCGCUGGGCUAGUGAUGUUGGCUAUAUACUA [whbob_Ex_Arginine_A_2t126] | K4 kissing-loop RNA reporter | 195 |
| GAACCAGAGGUUGCUGCGGGUUCCAGAGAUACCAGCCGUAUUGAAGGCCCUUGGCAGCUCGAGUGAUGUUCGAGCCGCCUCUGGC [Antius] | K4 kissing-loop RNA reporter | 120 |
| AUAGAGAAGUGGCACCCUCACUAAAACAGUCGAGGACCGGUACGGCCGCCACUCGCGCGCUUUAGUGAUGUUAAAGAUGUGAAAA | K4 kissing-loop RNA reporter | 223 |
| GGGUCAGUCUGAAGGAGCGGCCAGACAGAGCAGUGAUGUUGCUCCUAAUUUAAAAGUGUCGGCCAGGUAGGUCGCAGAUUGGCUC [Dienralais] | K4 kissing-loop RNA reporter | 161 |
| CUAUGGAAACAUAGGAAUCGGGAAACCGAUACCAGUAUGGAAACAUACCCUUGGCAGCGGAAUGAUUCAACGGAGUGAUGUUCCG [Theophylline A K4 20] | K4 kissing-loop RNA reporter | 399 |
| AAGAGGUAGGCGGCCGCCACUAGUUGUGAACACAUACAAGCCAGUGAUGUUGGUAUGGUGGGCGGUAGGACCGGGCCUACCUGAA [Exclusion - Tryptophan B (Freestyle 17)] | K4 kissing-loop RNA reporter | 257 |
| GUGAAGGAGAUGCAGUGAUGUUGCAGAGACUAGGAUAUCAGGAAACUGAGAAGGAGUCAAUUCCUUCAUUUAGACUGCAACAUAA [KL-SSFMN-A12] | K4 kissing-loop RNA reporter | 138 |
| UGUACCGAGUCAGGAUAUGGCGUCGAAAGACGAAUUCUAGUGAUGUUAGGGAUCUGCGAAAGCAGUCUAGAAGGGACUUGGUACU [FmnBS 26 U36+U68] | K4 kissing-loop RNA reporter | 508 |
| GGCAUGCAUGGAAACAUGCAUGCCAUGCCUCGAGGACCGGUACGGCCGCCACUCGUUAAAAGAAAUGCCAGUGAUGUUGGCCGAA | K4 kissing-loop RNA reporter | 528 |
| AGUGAUGUGGGAAGGAGCGGUACAUGACUUCAGUGAUGUUGAAGUGAUGAUUUAGUGAUGUGCCAGGUAGGUCGCCUAGAUGUUA [KL-XARG-B7] | K4 kissing-loop RNA reporter | 68.1 |
| AGUGCACUGUCAGGAUAUAUACAGUGAUGUUGUGUAUGUCAGCAAGUCAAAGACUUGCUGUUCUGUGUAGAAGGGACUGUGUACA [Omei KL FMN B Exc A v3] | K4 kissing-loop RNA reporter | 450 |
| CUAUGGAAACAUAGGAGUCGGGAAACCGAUACCAGUAUGGAAACAUACCCUUGGCAGCGGAAUGAUUCAACGGAGUGAUGUUCCG [Theophylline A K4 19] | K4 kissing-loop RNA reporter | 400 |
| AAAUAAUGCAGUCACCCAGUGAUGUUGGAAGGAGCGUGCGAAAGCACAGGUAGGUCGCCAAUAAUGAUAAAGUUCAGUGGCUUUA [JR_Nu_ExcArginiA_Sub030] | K4 kissing-loop RNA reporter | 454 |
| UUCAGGUGUUCGGCCGCCACUCCAGUGAUGUUGGAGUGGCUUCACAAGGACCAGGACAAUGUAAGGAGGACCGGGAAUAUCGCAG [Leerat] | K4 kissing-loop RNA reporter | 131 |
| CCCUCACGAGUGAUGUUCGUAGGGUACAGUCAGGAUAUCAUGCGGUUGAGAAGGGACAGAGAGGGCGGCGGCGGGUUGCUCAUCG [Rabele] | K4 kissing-loop RNA reporter | 153 |
| CGUCACAAACCUAGUCAAGUGAUGUUUGGCCGAGGACCGGUACGGCCGCCACUCGCUCCUGUCACCCAUUCGUGUGUCGCGGACU [theeternabot_exclusion_KL_Trp_A_5] | K4 kissing-loop RNA reporter | 316 |
| UGAUUGGCGAAAGUAGUGAUGUUACGAACAUAGGAUAUUAGAGGAAUAAGAAGGAUGAAUGAGAAAGGAAUAAAUUGUUGGUUGG [#08 K4 FMN A Same State] | K4 kissing-loop RNA reporter | 165 |
| AAAAUAAACCAGUGAUGUUGGUGUCCAGAUACCAGCGACAAAAGUCGCCCUUGGCAGCUGUGGACGUACAAAAUAAGUACGUCCU [MatMod 1 - Jieux - Same State - Theophylline A] | K4 kissing-loop RNA reporter | 393 |
| GUCCCGAGUGAUGUUCGGGUCGUUCGGGAAGGAGCGCCCGCAAGGGCAGGUAGGUCGCCCGGAUCCCUCAGGUAACUGAGGGACC [#2 Same State - Arginine A Attempt #26 (HarryS)] | K4 kissing-loop RNA reporter | 491 |

###

System: MS2 coat protein
Measurement notes: apparent KD of MS2 coat protein; designed switch direction (-1 OFF switch, 1 ON switch): -1; higher = weaker reporter binding
Test parameters: input ligand: none

| Residue sequence | apparent KD of MS2 coat protein [nM] |
| --- | --- |
| CAGUACUGAGGAUAUACAUGAGGAUCACCCAUGUGUUCCAGCUAGGAAACUAGCAGAAGUAGAAGGCAGUACUG [salish99_ex3_r3_067] (Eterna round: R96, puzzle: Exclusion 3) | 23.3 |
| AGAAUGGUACAGGAUAUAGCAUCUAACUGCAUGCUAGAAGGGUAUACAUGAGGAUCACCCAUGUAGUCGUGGAU [Eternabot (L1) Solution 13] (Eterna round: R97, puzzle: Exclusion 6) | 37.4 |
| GAGCCAUCGUGAGAUGGCUAAUUUACAUGAGGAUCACCCAUGUAGGAUAUCGAUUGCUUUGCAGUCGAGAAGGACAUGUUUAAU [JL ENG3 3.98] (Eterna round: R96, puzzle: Exclusion NG 3) | 36.2 |
| AGCUCACAUGAGGAUCACCCAUGUCAGGAUAUCGACUGAACAGCUUCGGCUGUUCAGUCGAGAAGGGACAAUUA [Brourdxlusion 5 - Jieux - Exclusion 1] (Eterna round: R97, puzzle: Exclusion 1) | 59.7 |
| AAAACGUGAGGAUAUCCAAUAUAUGACAUGAGGAUCACCCAUGUUUCCACUCGUACCUCCGGAGAAGGCACAUUUU [Ex5 #79] (Eterna round: R97, puzzle: Exclusion 5) | 67 |
| UUCACAUGGACAUAAGAUCACAUGAGGAUCACCCAUGUGAAUAACAAGCUUUUUGUUCGUCUUAUGUCCAAUAAUAU [Stov1/14-B3] (Eterna round: R97, puzzle: Sensor, turn-off variant 1) | 12.2 |
| UUGGUUGUGGUAGGAUAUCCGUUGGAAACCGUCGGAGAAGGACCACAGUCACUGGGUCUUUGUCUGGUGGAGUGGAAGAACCAU [pwkr exNG1 F6.20] (Eterna round: R96, puzzle: Exclusion NG 1) | 218 |
| GUGAUAACCAAGCUAGCCAACAUGAGGAUCACCCAUGUGUUCGAUAUGCAACAGGUAUGAUCUUAAUUUGCUCGAUC [Eternabot (Original) Solution 20] (Eterna round: R97, puzzle: Sensor, turn-off variant 1) | 48.5 |
| CAUACAGUAGUCAGGAUAUUGGAAGAGACACGGAACGAGAAGGGACAUGAGGAUCACCCAUGUAUACUGUAAAG [EX-4 Malc #4] (Eterna round: R96, puzzle: Brourd's mod of Exclusion 4) | 29.9 |
| GUCAUACAUGAGGAUCACCCAUGUGAGGAUAUGGGCGGCGCCGCAAAAGCGGCGCCGCCCAGAAGGCGCAUGAU [Malcxlusion 5 - Jieux - Exclusion 1] (Eterna round: R97, puzzle: Exclusion 1) | 71.5 |

###

System: MS2 coat protein
Measurement notes: apparent KD of MS2 coat protein; designed switch direction (-1 OFF switch, 1 ON switch): -1; higher = weaker reporter binding
Test parameters: Eterna round: R95; input ligand: FMN 200 uM
Entries and their measured apparent KD of MS2 coat protein follow.
Observable: apparent KD of MS2 coat protein (µM)

| Residue sequence | Observable | Observed value |
| --- | --- | --- |
| GAUUGACAUGAGGAUCACCCAUGUGAGGAUAUCGGCUGGACCGUGUUGGCCUGCCUCUCGAGAAGGCGCAUAGG [Exclusion 1 V53] (puzzle: Exclusion 1) | apparent KD of MS2 coat protein | 0.0499 |
| CGUGUGCAGUAGGAUAUCCAAAUCCUGUGGAUAGGAGAAGGACUGACAUGAGGAUCACCCAUGUGGGUAAAGAC [Velaxediza] (puzzle: Exclusion 6) | apparent KD of MS2 coat protein | 0.0488 |
| AGACAGUCAGGAUAUACAUGAGGAUCACCCAUGUUGAGAUGAGAAAGGGCAGGAAUAGGUAGAAGGGACGAGAG [JR_Exclu3_Sub037] (puzzle: Exclusion 3) | apparent KD of MS2 coat protein | 0.0305 |
| ACAAGAAUUUUGCUCGUAAAGUAGAAACGCGAGAGCGAGACAUGAGGAUCACCCAUGUAAAGGCAGUAGGUGGAGAU [JR_SV3TOV2_Sub027] (puzzle: Sensor v3, turn-off variant 2) | apparent KD of MS2 coat protein | 0.0493 |
| AAUAAGUGAGGAUAUGCAAUAAUAAAUAAAAUAAUAAAUAAGCAGAAGGCACAUGAGGAUCACCCAUGUAAUAA [JMF's solution 1] (puzzle: Exclusion 4) | apparent KD of MS2 coat protein | 0.0292 |
